Task for the reader: assign each of the following molecules its reported cell viability.
- Test system: OCI-AML2;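 note: after 48 h exposure read by CellTiter-Glo luminescence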
- PROTOCOL: cell viability relative to vehicle control; higher = less cytotoxic
- TEST CONDITIONS: 10 µM; SRSF2 genotype: wt/wt
State the value, then name its unit.

// below: answered molecules
>>> observed_result("COc1cccc(-c2cc(=O)c3ccccc3o2)c1N")
"58%"
>>> observed_result("OCC(O)C(O)C(O)C(O)CO (stereo not drawn)")
"103%"
>>> observed_result("CC(S)C(=O)NCC(=O)O (stereo not drawn)")
"112%"
>>> observed_result("OC[C@H]1O[C@@](CO)(O[C@H]2O[C@H](CO)[C@@H](O)[C@H](O)[C@H]2O)[C@@H](O[C@H]2O[C@H](CO)[C@@H](O)[C@H](O)[C@H]2O)[C@@H]1O [D-(+)-Melezitose]")
"95.5%"
>>> observed_result("NC(=O)[C@@H]1CCCN1C(=O)[C@H](Cc1c[nH]cn1)NC(=O)[C@@H]1CCC(=O)N1")
"100%"
>>> observed_result("OC[C@H]1O[C@@H](OCCc2ccc(O)cc2)[C@H](O)[C@@H](O)[C@@H]1O [Salidroside (Rhodioloside)]")
"94.6%"
>>> observed_result("CC(=O)C1=C(O)C=C2Oc3c(C(C)=O)c(O)c(C)c(O)c3C2(C)C1=O (single isomer, unassigned; (+)) [(+)-Usniacin (D-Usnic acid)]")
"98.9%"
>>> observed_result("O=CCc1ccccc1")
"93.5%"

For the 2 molecules below, give their cell viability values.
1. O=C(O)c1ccc(-c2ccc(C=C3SC(=S)N(Cc4ccccc4)C3=O)o2)cc1
2. COC1CCN(C(=O)c2cc(Cc3n[nH]c(=O)c4ccccc34)ccc2F)CC1

1: 112%; 2: 62.1%
